# Tested on: Danio rerio Tg(wt1b:EGFP) embryo, pronephros
# assay: glomerular width (mean of left and right), fold change vs DMSO control; higher = wider glomerulus
# condition-info: 25 µM; exposure: 24-48 hpf
So basically: glomerular width at 1 or higher? That is Yes. Lower than 1? That is No.

# compound, answer-label
data = [
    ("O=C(Nc1ccc([N+](=O)[O-])cc1Cl)c1cc(Cl)ccc1O [Niclosamide]", "No"),
]

API: above_or_equal(metric=glomerular width, cutoff=1) for item CC(C)c1ccc2oc3nc(N)c(C(=O)O)cc3c(=O)c2c1
Yes

----------
# Test system: Danio rerio Tg(wt1b:EGFP) embryo, pronephros
# assay: pronephric angle neck segment to proximal convoluted tubule (mean of left and right), fold change vs DMSO control; higher = larger pronephric angle
# condition-info: 25 µM; exposure: 24-48 hpf
Counter-ions that a name gives are not always drawn.
readout-name: pronephric angle neck segment
The answer should be a number; do not append a unit.

Examples from the recorded data:
# molecule, pronephric angle neck segment
records = [
    ("CC(COc1ccccc1)NC(C)C(O)c1ccc(O)cc1 (stereo unspecified) [Isoxsuprine hydrochloride]", 0.928),
    ("CC(C)NCC(O)COc1ccc(CCOCC2CC2)cc1 (stereo unspecified) [Betaxolol hydrochloride]", 0.987),
    ("N#Cc1cc(NC(=O)C(=O)O)c(Cl)c(NC(=O)C(=O)O)c1 [Lodoxamide]", 1.05),
    ("C#CCN(C)Cc1ccccc1 [Pargyline hydrochloride]", 0.95),
]

# query: pronephric angle neck segment of entry C[C@H](CCC(=O)O)[C@H]1CC[C@H]2[C@@H]3[C@@H](O)C[C@@H]4C[C@H](O)CC[C@]4(C)[C@H]3CC[C@]12C
0.965

Next: CO[C@H]1C[C@H](O[C@H]2[C@H](C)[C@@H](O[C@@H]3O[C@H](C)C[C@H](N(C)C)[C@H]3OC(C)=O)[C@@H](C)C[C@@]3(CO3)C(=O)[C@H](C)[C@@H](OC(C)=O)[C@@H](C)[C@@H](C)OC(=O)[C@@H]2C)O[C@@H](C)[C@@H]1OC(C)=O
0.969

Also, Cc1oncc1C(=O)Nc1ccc(C(F)(F)F)cc1 [Leflunomide] please.
1.23

Then this molecule: Clc1cccc(Cl)c1NC1=NCCN1 [Clonidine hydrochloride]
0.96

Now the same for C#C[C@]1(O)CC[C@H]2[C@@H]3CCC4=C(CCC(=O)C4)[C@H]3CC[C@@]21C
0.984

----------
Reported glomerular width values are given for each entry in this list.
# Tested on: Danio rerio Tg(wt1b:EGFP) embryo, pronephros
# assay: glomerular width (mean of left and right), fold change vs DMSO control; higher = wider glomerulus
# condition-info: 25 µM; exposure: 24-48 hpf
Counter-ions that a name gives are not always drawn.
Please give the numeric answer without any surrounding text.

# compound, glomerular width
rows = [
    ("Nc1nc(=S)c2ncn([C@@H]3O[C@H](CO)[C@@H](O)[C@H]3O)c2[nH]1", 1.02),
    ("C#C[C@]1(O)CC[C@H]2[C@@H]3CCC4=CC(=O)CC[C@@H]4[C@H]3CC[C@@]21CC [Norgestrel-(-)-D]", 1.02),
    ("CCCCc1ccc2[nH]c(NC(=O)OC)nc2c1", 0.504),
    ("N=C(N)N1CCc2ccccc2C1 [Debrisoquin sulfate]", 0.98),
    ("CN(C)CC/C=C1/c2ccccc2COc2ccc(CC(=O)O)cc21 [Olopatadine hydrochloride]", 0.97),
    ("NCCc1c[nH]cn1 [Histamine dihydrochloride]", 0.952),
]

Here's the next entry for you.
Using the record for COc1ccc(C2CNC(=O)C2)cc1OC1CCCC1 (stereo unspecified) , report its glomerular width.
0.955
